Measured IC50 by item
molecular target: Epidermal growth factor receptor (Homo sapiens); assay: biochemical
Value expressed in nM; do not type the unit.

Example results:
> print(dat)
                                  structure                            assayed.system  unit.info  recorded.number
1  S=C(NCc1ccccc1)Nc1ccc2ncnc(Nc3cccc(Br)c3)c2c1  Epidermal growth factor receptor (Homo sapiens)         nM             17.2
2   C=CC(=O)Nc1ccc2ncnc(Nc3ccc(Br)cc3F)c2c1  Epidermal growth factor receptor (Homo sapiens)         nM              2.1

Look at this compound and give its reported IC50. C=CC(=O)Nc1ccc2ncnc(Nc3cccc(C)c3F)c2c1
1.5

Entry under review: S=C(Nc1ccc2ncnc(Nc3cccc(Br)c3)c2c1)N1CCOCC1 . Reported IC50?
26.9

Record request: IC50 value, item CNC(=S)Nc1ccc2ncnc(Nc3cccc(Br)c3)c2c1
9.1

###

Cmax values by entry
assay: Cmax in NMRI nu/nu mouse at 10 mg/kg, sc administered as single dose by LC-MS analysis; type: ADME, organism-based; set-up: dose 10 mg/kg, route subcutaneous; settings: in vivo
Reply with just the number (in ng/mL).

> print(dat)
                                  structure  parameter  unit.info  recorded.number
1  FC(F)(F)c1csc(NC(=S)Nc2ccc3ncnc(Nc4cccc(Cl)c4)c3c2)n1       Cmax      ng/mL              101

Please find the next molecule below.
Could you share which Cmax value was measured for Fc1cc(F)cc(NC(=S)Nc2ccc3ncnc(Nc4cccc(Cl)c4)c3c2)c1 ?
327

###

experiment: Drug uptake in NMRI nu/nu mouse at 10 mg/kg, sc administered as single dose after 24 hrs by LC-MS analysis; format: ADME, organism-based; details: in vivo, read-out: Drug uptake
parameter: concentration at 24 h (ng/mL)
Expressed in ng/mL, but write only the number.

> print(dat)
                                  structure  recorded.number
1  FC(F)(F)c1csc(NC(=S)Nc2ccc3ncnc(Nc4cccc(Cl)c4)c3c2)n1              3.5

GET /values?readout=concentration at 24 h&item= Fc1cc(F)cc(NC(=S)Nc2ccc3ncnc(Nc4cccc(Cl)c4)c3c2)c1
79

###

biological target: Epidermal growth factor receptor (Homo sapiens); details: at 150 nM
The entries below are paired with their reported inhibition.
Expressed in %, but write only the number.

Take a look at these entries with their results.
> print(dat)
                                  structure  recorded.number
1  NS(=O)(=O)c1ccc(Nc2ncnc3ccc(NC(=S)NCc4ccccc4)cc23)cc1             17.7
2  O=S(=O)(Nc1nccs1)c1ccc(NC(=S)Nc2ccc3ncnc(Nc4cccc(Br)c4)c3c2)cc1             81.7
3  S=C(Nc1cc(Cl)cc(Cl)c1)Nc1ccc2ncnc(Nc3cccc(Br)c3)c2c1             50.9
4  S=C(Nc1ccc2ncnc(Nc3cccc(Br)c3)c2c1)Nc1ccccc1Cl             84.3

# ---- query molecule ----
Suppose we examine the molecule S=C(Nc1ccc2ncnc(Nc3cccc(Br)c3)c2c1)Nc1ccc(Cl)cc1Cl ; what inhibition value has been reported?
66

###

assay: Tmax in NMRI nu/nu mouse at 10 mg/kg, sc administered as single dose by LC-MS analysis; type: ADME, organism-based; details: in vivo
parameter: Tmax (h)
Lab book: enter the figure in h, no units written.

> print(dat)
                                  structure  unit.info  recorded.number
1  FC(F)(F)c1csc(NC(=S)Nc2ccc3ncnc(Nc4cccc(Cl)c4)c3c2)n1          h                1

Data request, read-out Tmax, for Fc1cc(F)cc(NC(=S)Nc2ccc3ncnc(Nc4cccc(Cl)c4)c3c2)c1
8

###

assay: Blood clearance in Sprague-Dawley rat by LC-MS/MS analysis; assay type: ADME
clearance values, listed per item
Return type: number; implicit unit mL/min/kg.

> print(dat)
                                  structure  parameter  unit.info  recorded.number
1  FC(F)(F)c1csc(NC(=S)Nc2ccc3ncnc(Nc4cccc(Cl)c4)c3c2)n1  clearance  mL/min/kg               51

From here, focus on the item given below.
Dear colleague, I am looking for the recorded clearance of the following molecule: Fc1cc(F)cc(NC(=S)Nc2ccc3ncnc(Nc4cccc(Cl)c4)c3c2)c1
19

###

target: Receptor-interacting serine/threonine-protein kinase 2 (Homo sapiens, UniProt O43353); assay: Inhibition of TNFalpha-stimulated RIPK2 in human U937 cells in presence of 5 uM ATP
Sequence (O43353 whole entry): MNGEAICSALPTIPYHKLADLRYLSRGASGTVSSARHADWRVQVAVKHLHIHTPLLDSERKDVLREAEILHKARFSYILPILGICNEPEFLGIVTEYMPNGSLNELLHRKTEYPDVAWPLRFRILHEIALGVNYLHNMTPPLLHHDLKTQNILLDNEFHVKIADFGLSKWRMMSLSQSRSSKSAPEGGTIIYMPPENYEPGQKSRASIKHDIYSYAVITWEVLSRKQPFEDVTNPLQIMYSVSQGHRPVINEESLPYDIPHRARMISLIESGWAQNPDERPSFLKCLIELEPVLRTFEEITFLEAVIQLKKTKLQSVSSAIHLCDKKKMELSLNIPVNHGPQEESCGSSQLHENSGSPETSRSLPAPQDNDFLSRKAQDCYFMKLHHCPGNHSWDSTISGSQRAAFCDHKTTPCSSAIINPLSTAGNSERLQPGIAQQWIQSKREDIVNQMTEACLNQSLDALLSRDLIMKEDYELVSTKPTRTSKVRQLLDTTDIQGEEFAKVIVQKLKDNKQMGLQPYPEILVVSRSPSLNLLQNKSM
parameter: IC50

Short answer please: IC50, Receptor-interacting serine/threonine-protein kinase 2 (Homo sapiens, UniProt O43353), entry S=C(NCc1ccccc1)Nc1ccc2ncnc(Nc3cccc(Br)c3)c2c1
> 10 µM

###

biological target: Epidermal growth factor receptor (Homo sapiens); conditions: at 150 nM
inhibition values, listed per item
Reply with just the number (in %).

Consider the worked cases shown below.
> print(dat)
                                  structure                            assayed.system  recorded.number
1  Oc1ccc(Nc2ncnc3ccc(NC(=S)NCc4ccccc4)cc23)cc1  Epidermal growth factor receptor (Homo sapiens)             44.1
2  S=C(Nc1ccc2ncnc(Nc3cccc(Br)c3)c2c1)N1CCOCC1  Epidermal growth factor receptor (Homo sapiens)               84
3  Fc1ccc(NC(=S)Nc2ccc3ncnc(Nc4cccc(Br)c4)c3c2)cc1Cl  Epidermal growth factor receptor (Homo sapiens)             74.1
4  Fc1cc(F)cc(NC(=S)Nc2ccc3ncnc(Nc4cccc(Cl)c4)c3c2)c1  Epidermal growth factor receptor (Homo sapiens)             87.6
5  S=C(NCc1ccc(Cl)cc1)Nc1ccc2ncnc(Nc3cccc(Br)c3)c2c1  Epidermal growth factor receptor (Homo sapiens)             77.5
6  O=C(Nc1ccc(Cl)cc1)Nc1ccc2ncnc(Nc3cccc(Br)c3)c2c1  Epidermal growth factor receptor (Homo sapiens)               69
7  S=C(Nc1ccc(Cl)cc1)Nc1ccc2ncnc(Nc3cccc(Br)c3)c2c1  Epidermal growth factor receptor (Homo sapiens)             79.6
8     CNC(=S)Nc1ccc2ncnc(Nc3cccc(Br)c3)c2c1  Epidermal growth factor receptor (Homo sapiens)             92.2

Give its inhibition value. Item: S=C(Nc1ccc(Cl)c(Cl)c1)Nc1ccc2ncnc(Nc3cccc(Br)c3)c2c1
52.9

Item under review: FC(F)(F)c1cc(NC(=S)Nc2ccc3ncnc(Nc4cccc(Br)c4)c3c2)cc(C(F)(F)F)c1 . Reported inhibition?
32.3

###

molecular target: Epidermal growth factor receptor (Homo sapiens, UniProt P00533); conditions: at 150 nM
Sequence (P00533 whole entry): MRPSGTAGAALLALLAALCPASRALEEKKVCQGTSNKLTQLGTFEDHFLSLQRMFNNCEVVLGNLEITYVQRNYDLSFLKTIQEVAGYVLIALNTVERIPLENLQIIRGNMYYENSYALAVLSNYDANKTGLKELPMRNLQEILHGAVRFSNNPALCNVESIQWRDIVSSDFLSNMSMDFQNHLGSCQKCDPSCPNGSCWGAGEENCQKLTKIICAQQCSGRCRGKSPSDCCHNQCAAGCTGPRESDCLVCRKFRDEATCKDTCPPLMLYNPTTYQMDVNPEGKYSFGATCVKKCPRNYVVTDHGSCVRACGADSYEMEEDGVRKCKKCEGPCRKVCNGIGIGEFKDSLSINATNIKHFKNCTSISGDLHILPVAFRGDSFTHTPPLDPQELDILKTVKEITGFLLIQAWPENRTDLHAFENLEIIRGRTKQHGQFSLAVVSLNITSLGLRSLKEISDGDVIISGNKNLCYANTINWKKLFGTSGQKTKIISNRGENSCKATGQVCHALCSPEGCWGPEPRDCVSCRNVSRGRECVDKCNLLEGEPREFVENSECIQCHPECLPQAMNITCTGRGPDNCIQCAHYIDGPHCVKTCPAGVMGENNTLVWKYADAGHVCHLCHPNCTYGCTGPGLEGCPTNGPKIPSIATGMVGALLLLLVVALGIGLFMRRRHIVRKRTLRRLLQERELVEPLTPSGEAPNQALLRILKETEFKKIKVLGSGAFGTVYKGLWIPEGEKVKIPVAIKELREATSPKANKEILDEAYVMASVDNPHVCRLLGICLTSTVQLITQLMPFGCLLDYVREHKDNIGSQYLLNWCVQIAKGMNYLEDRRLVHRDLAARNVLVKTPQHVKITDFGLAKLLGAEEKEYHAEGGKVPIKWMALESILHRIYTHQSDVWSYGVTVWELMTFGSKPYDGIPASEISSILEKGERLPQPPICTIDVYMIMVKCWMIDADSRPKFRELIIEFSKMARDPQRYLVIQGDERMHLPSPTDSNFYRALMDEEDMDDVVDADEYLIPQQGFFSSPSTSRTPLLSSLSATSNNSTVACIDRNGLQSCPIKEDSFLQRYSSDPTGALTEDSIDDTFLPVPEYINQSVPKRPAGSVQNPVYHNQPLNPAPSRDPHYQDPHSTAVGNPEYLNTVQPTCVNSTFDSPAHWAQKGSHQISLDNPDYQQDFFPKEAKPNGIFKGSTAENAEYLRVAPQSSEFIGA
parameter: inhibition (%)
Could you give me the number in %? Just the number is fine.

The examples below pair each entry with its known result.
> print(dat)
                                  structure                            assayed.system  recorded.number
1  S=C(NCc1ccccc1)Nc1ccc2ncnc(Nc3ccccc3Br)c2c1  Epidermal growth factor receptor (Homo sapiens, UniProt P00533)             13.1
2  S=C(Nc1ccc2ncnc(Nc3cccc(Cl)c3)c2c1)Nc1ncc(Cl)s1  Epidermal growth factor receptor (Homo sapiens, UniProt P00533)               60
3  FC(F)(F)c1cccc(NC(=S)Nc2ccc3ncnc(Nc4cccc(Br)c4)c3c2)c1  Epidermal growth factor receptor (Homo sapiens, UniProt P00533)             57.5

Request body: readout inhibition, system Epidermal growth factor receptor (Homo sapiens, UniProt P00533), query Fc1ccc(NC(=S)Nc2ccc3ncnc(Nc4cccc(Cl)c4)c3c2)cc1F . Return the value.
44.4

Lab note: need inhibition with Epidermal growth factor receptor (Homo sapiens, UniProt P00533) for entry NS(=O)(=O)c1ccc(NC(=S)Nc2ccc3ncnc(Nc4cccc(Br)c4)c3c2)cc1 , please look it up.
92.3

###

Attribute: inhibition
target: UniProt P00533; details: at 150 nM
Answer with the value and then the unit.

Below, 5 compounds whose answers are already recorded.
> print(dat)
                                  structure  result
1  S=C(Nc1ccc(Br)cc1)Nc1ccc2ncnc(Nc3cccc(Br)c3)c2c1   70.4%
2  Oc1ccc(NC(=S)Nc2ccc3ncnc(Nc4cccc(Br)c4)c3c2)cc1   91.5%
3  FC(F)(F)c1ccc(NC(=S)Nc2ccc3ncnc(Nc4cccc(Br)c4)c3c2)cc1   38.1%
4  CC(C)(C)c1ccc(Nc2ncnc3ccc(NC(=S)NCc4ccccc4)cc23)cc1    0.9%
5  O=S(=O)(Nc1ccccn1)c1ccc(Nc2ncnc3ccc(NC(=S)NCc4ccccc4)cc23)cc1   20.9%

API: value(readout= inhibition, system= UniProt P00533, query= Cc1nnc(NC(=S)Nc2ccc3ncnc(Nc4cccc(Cl)c4)c3c2)s1 )
70.8%

Query the reported inhibition for UniProt P00533; item: Oc1cccc(Nc2ncnc3ccc(NC(=S)NCc4ccccc4)cc23)c1
60.8%

Lab request: please report inhibition under test system UniProt P00533 for S=C(NCc1ccccc1)Nc1ccc2ncnc(Nc3ccc(-c4ccccc4)cc3)c2c1
14.5%

Form: Entry = Cc1cccc(Nc2ncnc3ccc(NC(=S)NCc4ccccc4)cc23)c1C | System = UniProt P00533 | inhibition = ____
40%

Field: inhibition (UniProt P00533). Entry: S=C(Nc1cccnc1)Nc1ccc2ncnc(Nc3cccc(Br)c3)c2c1
90.4%
